Recorded values, source patent US10975056B2.

Test system: erythroid progenitor cells (EPCs)
Assay: Fetal hemoglobin (HbF) ELISA in day 7 erythroid progenitor cells;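 further: for fetal hemoglobin induction normalized to vehicle-treated cells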
Type: cell-based, human
Details: Homo sapiens, Erythroid progenitor cell, HbF ELISA, day 7 EPCs, 5 days; read-out: EPC ELISA (pEC50 category) (converted)
Counter-ions that a name gives are not always drawn.
Here the recorded EC50 is given for each entry.

# annotated cases, reported EC50 shown
1. N#Cc1c(SC(C(N)=O)c2ccccc2)nc(N2CCNC(=O)CC2)c(C#N)c1C1CC1 (stereo not drawn) [Example 110] | 1000 to 31600 nM
2. CCc1c(C#N)c(SC(C(N)=O)c2ccc(C(N)=O)cc2)nc(N2CCCN(C)CC2)c1C#N (stereo not drawn) [Example 368] | > 31600 nM
3. CCc1c(C#N)c(SCc2ccc(N(C)S(=O)(=O)CF)cc2)nc(N2CCCN(C)CC2)c1C#N [Example 595] | < 316 nM
4. CCc1c(C#N)c(SCc2ccc(=O)[nH]c2)nc(N(C)C)c1C#N [Example 74] | 1000 to 31600 nM
5. CCc1c(C#N)c(SCc2ccc(-n3ccnc3)cc2)nc(N2CCCN(C)CC2)c1C#N [Example 294] | > 31600 nM
6. CCc1c(C#N)c(SC(C(N)=O)c2ccccc2)nc(N2CC[C@@H](O)C2)c1C#N (stereo partly drawn) [Example 160] | 1000 to 31600 nM
7. CCc1c(C#N)c(S[C@@H](C(N)=O)c2ccccc2)nc(N2CC[C@H](O)C2)c1C#N [Example 168] | 316 to 1000 nM
8. CCc1c(C#N)c(SCc2ccc(CNC(C)=O)cc2)nc(N2CCC(N3CCCC3)CC2)c1C#N [Example 66, trifluoroacetate] | < 316 nM

Notebook: CCc1c(C#N)c(SC(C(N)=O)c2ccccc2)nc(N2CCN(Cc3cn[nH]c3)CC2)c1C#N (stereo not drawn) [Example 187] , EC50 read as 1000 to 31600 nM

Notebook: CCc1c(C#N)c(SC(C(N)=O)c2ccc(F)cc2)nc(N2CCC(N(C)C)CC2)c1C#N (stereo not drawn) [Example 207] , EC50 read as < 316 nM
